Target: Histone deacetylase 1 (Homo sapiens)
Sequence (Q13547 whole entry): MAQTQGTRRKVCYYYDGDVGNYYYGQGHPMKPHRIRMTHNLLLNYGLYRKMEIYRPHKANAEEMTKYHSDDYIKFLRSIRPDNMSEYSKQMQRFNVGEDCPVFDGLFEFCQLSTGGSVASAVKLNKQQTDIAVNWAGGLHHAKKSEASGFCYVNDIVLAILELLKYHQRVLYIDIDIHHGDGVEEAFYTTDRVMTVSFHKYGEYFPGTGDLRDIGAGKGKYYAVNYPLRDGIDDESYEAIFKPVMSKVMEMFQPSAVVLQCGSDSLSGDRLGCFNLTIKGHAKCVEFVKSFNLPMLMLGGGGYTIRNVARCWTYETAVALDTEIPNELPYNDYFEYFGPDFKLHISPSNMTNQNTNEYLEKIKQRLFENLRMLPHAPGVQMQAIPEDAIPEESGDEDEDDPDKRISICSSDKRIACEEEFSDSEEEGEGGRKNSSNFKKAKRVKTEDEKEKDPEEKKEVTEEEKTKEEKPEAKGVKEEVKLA
Assay: Inhibition of recombinant HDAC1 (unknown origin) using Boc-Lys(acetyl)-AMC as substrate preincubated for 1 hr followed by substrate addition and measured after 2 hrs by fluorescence based micro plate reader analysis
pIC50: −log10 of the molar value.
readout_type: pIC50

>>> recorded_measurement("CCCNNC(=O)c1ccc(NCc2ccccc2)cc1")
7.80
>>> recorded_measurement("CCCNNC(=O)c1ccc(OCc2ccccc2)cc1")
7.25
>>> recorded_measurement("Cc1[nH]c2ccccc2c1CCNCc1ccc(/C=C/C(=O)NN(C)C)cc1")
4.96

----------
Molecular target: Histone deacetylase 3/Nuclear receptor corepressor 2 (HDAC3/NCoR2) (Homo sapiens, UniProt O15379)
Sequence (O15379 whole entry): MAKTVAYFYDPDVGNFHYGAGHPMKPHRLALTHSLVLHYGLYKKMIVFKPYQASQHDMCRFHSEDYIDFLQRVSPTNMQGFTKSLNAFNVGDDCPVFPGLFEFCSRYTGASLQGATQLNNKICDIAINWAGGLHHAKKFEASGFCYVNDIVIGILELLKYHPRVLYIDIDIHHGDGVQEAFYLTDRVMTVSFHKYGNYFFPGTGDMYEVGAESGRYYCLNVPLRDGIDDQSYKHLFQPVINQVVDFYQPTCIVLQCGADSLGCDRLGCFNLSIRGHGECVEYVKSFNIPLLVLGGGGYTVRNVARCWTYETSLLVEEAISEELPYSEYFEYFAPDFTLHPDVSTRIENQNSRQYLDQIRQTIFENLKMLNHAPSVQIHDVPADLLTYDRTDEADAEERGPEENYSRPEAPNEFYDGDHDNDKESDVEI
Sequence (Q9Y618 whole entry, further chain): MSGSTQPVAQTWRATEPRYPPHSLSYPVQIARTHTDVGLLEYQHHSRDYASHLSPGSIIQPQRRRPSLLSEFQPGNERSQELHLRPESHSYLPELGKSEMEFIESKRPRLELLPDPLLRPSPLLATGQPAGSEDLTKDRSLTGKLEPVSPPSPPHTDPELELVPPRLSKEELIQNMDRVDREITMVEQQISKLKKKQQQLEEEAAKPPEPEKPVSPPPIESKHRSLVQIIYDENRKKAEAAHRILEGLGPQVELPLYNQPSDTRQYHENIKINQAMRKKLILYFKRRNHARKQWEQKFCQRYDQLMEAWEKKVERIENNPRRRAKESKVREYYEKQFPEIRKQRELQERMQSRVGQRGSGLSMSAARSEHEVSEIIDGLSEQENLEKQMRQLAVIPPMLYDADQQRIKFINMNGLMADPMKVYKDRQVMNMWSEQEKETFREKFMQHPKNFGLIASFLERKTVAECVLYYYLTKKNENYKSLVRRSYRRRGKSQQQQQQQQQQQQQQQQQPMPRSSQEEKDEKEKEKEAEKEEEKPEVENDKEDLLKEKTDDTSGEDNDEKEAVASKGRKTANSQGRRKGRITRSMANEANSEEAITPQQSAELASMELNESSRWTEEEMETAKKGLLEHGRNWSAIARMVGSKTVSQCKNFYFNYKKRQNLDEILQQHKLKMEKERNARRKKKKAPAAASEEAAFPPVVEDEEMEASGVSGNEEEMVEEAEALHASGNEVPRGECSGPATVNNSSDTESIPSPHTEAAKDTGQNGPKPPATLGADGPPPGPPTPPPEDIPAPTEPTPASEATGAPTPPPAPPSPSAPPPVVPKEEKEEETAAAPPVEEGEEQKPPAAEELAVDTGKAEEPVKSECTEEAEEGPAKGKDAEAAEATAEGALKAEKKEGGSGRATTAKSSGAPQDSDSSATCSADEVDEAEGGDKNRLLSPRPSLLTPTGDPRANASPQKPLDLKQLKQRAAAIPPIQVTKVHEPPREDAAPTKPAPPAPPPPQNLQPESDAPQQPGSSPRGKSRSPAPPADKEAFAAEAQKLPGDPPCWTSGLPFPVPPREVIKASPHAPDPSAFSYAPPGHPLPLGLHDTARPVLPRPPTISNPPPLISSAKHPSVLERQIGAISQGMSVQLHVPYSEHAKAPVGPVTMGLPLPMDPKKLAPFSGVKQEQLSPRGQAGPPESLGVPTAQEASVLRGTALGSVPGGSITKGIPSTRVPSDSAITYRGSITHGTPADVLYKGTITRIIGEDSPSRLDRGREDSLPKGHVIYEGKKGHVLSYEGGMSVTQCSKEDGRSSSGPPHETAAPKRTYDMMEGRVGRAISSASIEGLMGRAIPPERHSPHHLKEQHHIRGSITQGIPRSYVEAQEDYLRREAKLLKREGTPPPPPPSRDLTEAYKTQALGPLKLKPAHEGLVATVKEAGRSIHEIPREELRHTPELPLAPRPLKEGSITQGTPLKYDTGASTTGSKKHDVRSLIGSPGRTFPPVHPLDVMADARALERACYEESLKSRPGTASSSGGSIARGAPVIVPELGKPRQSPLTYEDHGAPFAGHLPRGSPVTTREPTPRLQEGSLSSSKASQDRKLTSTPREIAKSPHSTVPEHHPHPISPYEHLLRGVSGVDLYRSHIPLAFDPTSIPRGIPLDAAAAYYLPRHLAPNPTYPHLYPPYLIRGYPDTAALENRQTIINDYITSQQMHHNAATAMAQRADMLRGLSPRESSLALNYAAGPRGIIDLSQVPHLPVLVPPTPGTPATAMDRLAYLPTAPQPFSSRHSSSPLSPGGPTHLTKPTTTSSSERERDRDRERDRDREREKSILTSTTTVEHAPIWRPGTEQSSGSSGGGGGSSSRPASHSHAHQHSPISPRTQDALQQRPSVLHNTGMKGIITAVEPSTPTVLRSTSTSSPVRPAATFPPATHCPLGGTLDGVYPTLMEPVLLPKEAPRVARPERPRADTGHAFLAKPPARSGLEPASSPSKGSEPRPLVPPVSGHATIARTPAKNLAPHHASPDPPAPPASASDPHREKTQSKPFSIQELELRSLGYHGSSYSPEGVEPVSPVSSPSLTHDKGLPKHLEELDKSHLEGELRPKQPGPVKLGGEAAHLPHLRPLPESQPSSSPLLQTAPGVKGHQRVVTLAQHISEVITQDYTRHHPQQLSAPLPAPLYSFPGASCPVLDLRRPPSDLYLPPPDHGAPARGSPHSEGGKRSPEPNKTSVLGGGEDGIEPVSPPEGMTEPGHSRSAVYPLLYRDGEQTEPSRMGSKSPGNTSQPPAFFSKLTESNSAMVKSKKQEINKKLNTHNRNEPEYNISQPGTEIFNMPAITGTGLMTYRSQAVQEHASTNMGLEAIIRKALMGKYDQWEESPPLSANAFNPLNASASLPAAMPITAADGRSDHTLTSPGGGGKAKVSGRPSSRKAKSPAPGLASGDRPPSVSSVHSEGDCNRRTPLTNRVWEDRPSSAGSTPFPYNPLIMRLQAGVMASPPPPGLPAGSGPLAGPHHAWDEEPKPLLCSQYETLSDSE
Assay: biochemical
Design: species or system Sf9
readout_type: log10 of IC50 (log10 of the value in nM)

>>> recorded_measurement("CCCNNC(=O)c1ccc(NC(=O)c2ccccc2)cc1")
1.69
>>> recorded_measurement("CCCNNC(=O)c1ccc(OCc2ccccc2)cc1")
1.39
>>> recorded_measurement("Cc1[nH]c2ccccc2c1CCNCc1ccc(/C=C/C(=O)NNCCN)cc1")
3.72
>>> recorded_measurement("CCCNNC(=O)c1ccc(NCc2ccccc2)cc1")
0.79
>>> recorded_measurement("CCCCN(CCC)NC(=O)/C=C/c1ccc(CNCCc2c(C)[nH]c3ccccc23)cc1")
2.36
>>> recorded_measurement("COC(=O)CCNNC(=O)/C=C/c1ccc(CNCCc2c(C)[nH]c3ccccc23)cc1")
2.49
>>> recorded_measurement("CCCNNC(=O)c1cccc(CNCCc2c(C)[nH]c3ccccc23)c1")
2.83
>>> recorded_measurement("Cc1[nH]c2ccccc2c1CCNCc1ccc(/C=C/C(=O)NN2CCCC2)cc1")
3.49
>>> recorded_measurement("CCCCCN(CCC)NC(=O)/C=C/c1ccc(CNCCc2c(C)[nH]c3ccccc23)cc1")
2.51
>>> recorded_measurement("CCCCCCN(CCC)NC(=O)/C=C/c1ccc(CNCCc2c(C)[nH]c3ccccc23)cc1")
2.16

----------
These records show pIC50 for Histone deacetylase 2 (Homo sapiens).
pIC50: −log10 of the molar value.
readout_type: pIC50

>>> recorded_measurement("Cc1[nH]c2ccccc2c1CCNCc1ccc(/C=C/C(=O)NN2CCCC2)cc1")
"< 5.00"
>>> recorded_measurement("Cc1[nH]c2ccccc2c1CCNCc1ccc(/C=C/C(=O)NN(CCCO)CCCO)cc1")
"< 5.00"
>>> recorded_measurement("Cc1[nH]c2ccccc2c1CCNCc1ccc(/C=C/C(=O)NN2CCCCC2)cc1")
"< 5.00"

----------
Molecular target: Histone deacetylase 3/Nuclear receptor corepressor 2 (HDAC3/NCoR2) (Homo sapiens)
Experiment: biochemical
pIC50: −log10 of the molar value.
readout_type: pIC50

>>> recorded_measurement("Cc1[nH]c2ccccc2c1CCNCc1ccc(/C=C/C(=O)NN2CCCCC2)cc1")
"< 5.00"
>>> recorded_measurement("CCCNNC(=O)c1cccc(CN(CCc2c(C)[nH]c3ccccc23)C(=O)OC(C)(C)C)c1")
"< 5.30"
>>> recorded_measurement("Cc1[nH]c2ccccc2c1CCNCc1ccc(/C=C/C(=O)NN(CCCO)CCCO)cc1")
"< 5.00"

Where these numbers come from: ChEMBL document CHEMBL4342521
